Here the recorded IC50 is given for each entry.
Molecular target: human TRPM8 (Homo sapiens, UniProt Q7Z2W7)
Construct: expressed in transfected cells; host or cells: Chinese hamster ovary (CHO) cells, T-REx tetracycline-inducible expression system (Invitrogen); co-transfected with pcDNA3.1 aequorin
Sequence (Q7Z2W7 whole entry): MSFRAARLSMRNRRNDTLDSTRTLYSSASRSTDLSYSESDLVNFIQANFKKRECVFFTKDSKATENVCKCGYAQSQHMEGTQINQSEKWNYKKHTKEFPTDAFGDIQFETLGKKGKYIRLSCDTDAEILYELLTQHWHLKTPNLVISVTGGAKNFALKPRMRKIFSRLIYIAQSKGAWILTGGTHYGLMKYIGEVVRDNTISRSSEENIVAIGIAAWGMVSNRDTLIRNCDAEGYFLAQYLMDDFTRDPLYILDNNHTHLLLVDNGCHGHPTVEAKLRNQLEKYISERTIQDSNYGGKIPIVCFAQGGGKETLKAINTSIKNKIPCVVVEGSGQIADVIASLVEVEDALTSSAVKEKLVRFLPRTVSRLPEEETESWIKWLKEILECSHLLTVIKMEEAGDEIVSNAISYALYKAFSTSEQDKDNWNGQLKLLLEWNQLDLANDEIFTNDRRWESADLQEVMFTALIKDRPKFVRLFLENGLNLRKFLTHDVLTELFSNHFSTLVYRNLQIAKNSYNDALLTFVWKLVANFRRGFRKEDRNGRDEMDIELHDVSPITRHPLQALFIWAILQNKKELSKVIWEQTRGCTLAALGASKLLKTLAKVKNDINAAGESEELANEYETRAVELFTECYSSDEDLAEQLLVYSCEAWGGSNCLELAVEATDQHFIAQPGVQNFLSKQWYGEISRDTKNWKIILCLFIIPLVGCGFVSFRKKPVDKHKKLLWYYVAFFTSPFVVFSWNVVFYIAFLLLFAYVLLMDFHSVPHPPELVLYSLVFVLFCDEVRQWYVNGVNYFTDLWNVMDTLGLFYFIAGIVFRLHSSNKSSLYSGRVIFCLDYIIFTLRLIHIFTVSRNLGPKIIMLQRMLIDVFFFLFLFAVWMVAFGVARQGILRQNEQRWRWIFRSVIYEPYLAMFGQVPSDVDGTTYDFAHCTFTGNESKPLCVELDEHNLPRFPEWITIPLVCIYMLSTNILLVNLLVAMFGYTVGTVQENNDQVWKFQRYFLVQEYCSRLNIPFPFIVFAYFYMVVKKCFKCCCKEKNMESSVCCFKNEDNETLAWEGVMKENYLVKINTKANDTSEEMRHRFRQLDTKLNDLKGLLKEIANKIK
Test: Luminescence readout assay for measuring intracellular calcium (aequorin, CHO cells expressing human TRPM8; icilin, L-menthol or cold activation)
Format: cell-based
Conditions: CHO cells expressing human TRPM8, icilin activation (1 μM), aequorin luminescence; read-out: hTRPM8 IC50
Structures can show the parent of a compound that is named as a salt.
Numbers only; they are read as nM.

// below: answered compounds
1) COC(=O)c1cc(C(=O)N[C@]2(c3ccc(OC(F)(F)F)c(F)c3)CCOc3cccnc32)ccc1OC = 36
2) Cc1cc(C(=O)N[C@]2(c3ccc(OC(F)(F)F)c(F)c3)CCOc3cccnc32)ncc1C(=O)O = 25
3) O=C(N[C@]1(c2ccc(OC(F)(F)F)c(F)c2)CCOc2cccnc21)c1ccc2[nH]c(=O)c(=O)[nH]c2c1 = 335
4) O=C(N[C@]1(c2ccc(OC(F)(F)F)cc2)CCOc2cccnc21)c1cnn2cccnc12 [Example 244, formate] = 52.1

Please give the measured IC50 for this compound: O=C(O)c1cccc(C(=O)N[C@]2(c3ccc(OC(F)(F)F)c(F)c3)CCOc3cccnc32)c1 72

Entry CCc1cc(C(=O)N[C@]2(c3ccc(OC(F)(F)F)c(F)c3)CCOc3cccnc32)ccc1C(=O)OC please 11

Entry CCOc1cnc(-c2ccc([C@@]3(NC(=O)c4ccc(F)cc4)CCOc4cccnc43)cc2)cn1 please 73.7
